meta.source: the supplement of paper PMC9112550

Give measured shrunken log2 fold change for each item. Keep answers brief.
Tested on: Escherichia coli TOP10
Assay: shrunken log2 fold change of peptide-encoding DNA abundance (4.5 h post-induction vs induction); higher = less antimicrobial activity (less host growth inhibition)
Settings: time post-induction: 4.5 h; library: site-saturation at positions 5, 18, 19, 20
Numbers only.

[[record]]
recordsequence = "RRIRSRPPRLPRPRPRPKMKPRP"
numericresult = 0.912

[[record]]
recordsequence = "RRIRTRPPRLPRPRPRPFCSPRP"
numericresult = 0.207

[[record]]
recordsequence = "RRIRWRPPRLPRPRPRPRWHPRP"
numericresult = 0.271

[[record]]
recordsequence = "RRIRRRPPRLPRPRPRPGTRPRP"
numericresult = 0.117

[[record]]
recordsequence = "RRIRSRPPRLPRPRPRPFATPRP"
numericresult = 0.461


Provide each entry's shrunken log2 fold change from the list below.
1. RRIRVRPPRLPRPRPRPCIQPRP
2. RRIRSRPPRLPRPRPRPPSKPRP
3. RRIRGRPPRLPRPRPRPCDRPRP
4. RRIRERPPRLPRPRPRPEIVPRP
5. RRIRERPPRLPRPRPRPIFPPRP
6. RRIRERPPRLPRPRPRPQHIPRP

Response:
[-0.00992, 0.0454, 0.00287, 0.00903, -0.367, -0.15]

Provide each entry's shrunken log2 fold change from the list below.
1. RRIRDRPPRLPRPRPRPDTVPRP
2. RRIRHRPPRLPRPRPRPTPLPRP

Response:
-0.0743
0.243

---

System: Escherichia coli TOP10
Assay: shrunken log2 fold change of peptide-encoding DNA abundance (4.5 h post-induction vs induction); higher = less antimicrobial activity (less host growth inhibition)
Details: time post-induction: 4.5 h; library: site-saturation at positions 5, 18, 19, 20
Assign class 1 whenever shrunken log2 fold change does not fall below 0.06; assign class 0 whenever it does.

[[record]]
recordsequence = "RRIRDRPPRLPRPRPRPSRTPRP"
qualitativelabel = "class 1"


Request: Can RRIRIRPPRLPRPRPRPVTEPRP be said to have shrunken log2 fold change at or above 0.06?
Response: class 0

Request: Continue with RRIRVRPPRLPRPRPRPAARPRP
Response: class 1

Request: Continue with RRIRCRPPRLPRPRPRPIGVPRP
Response: class 0

Request: Continue with RRIRERPPRLPRPRPRPLMVPRP
Response: class 0

Request: Continue with RRIRTRPPRLPRPRPRPQKSPRP
Response: class 0

Request: Continue with RRIRARPPRLPRPRPRPAHDPRP
Response: class 1

Request: Continue with RRIRVRPPRLPRPRPRPMSSPRP
Response: class 1

Request: Continue with RRIRKRPPRLPRPRPRPIKQPRP
Response: class 0

Request: Continue with RRIRWRPPRLPRPRPRPQGTPRP
Response: class 1

Request: Continue with RRIRNRPPRLPRPRPRPAANPRP
Response: class 1

Request: Continue with RRIRSRPPRLPRPRPRPECWPRP
Response: class 1

Request: Continue with RRIRARPPRLPRPRPRPPPTPRP
Response: class 1

Request: Continue with RRIRLRPPRLPRPRPRPGCLPRP
Response: class 0

Request: Continue with RRIRQRPPRLPRPRPRPKCPPRP
Response: class 0

Request: Continue with RRIRGRPPRLPRPRPRPWWAPRP
Response: class 1

Request: Continue with RRIRMRPPRLPRPRPRPHSSPRP
Response: class 0

Request: Continue with RRIRPRPPRLPRPRPRPLVAPRP
Response: class 1

---

Test system: Escherichia coli TOP10
Assay: shrunken log2 fold change of peptide-encoding DNA abundance (4.5 h post-induction vs induction); higher = less antimicrobial activity (less host growth inhibition)
Details: time post-induction: 4.5 h; library: site-saturation at positions 5, 18, 19, 20
Assign 1.0 whenever shrunken log2 fold change does not fall below -0.3; assign 0.0 whenever it does.

Consider the worked cases shown below.
[[record]]
recordsequence = "RRIRSRPPRLPRPRPRPGPYPRP"
qualitativelabel = 0.0

[[record]]
recordsequence = "RRIRCRPPRLPRPRPRPGIDPRP"
qualitativelabel = 1.0

[[record]]
recordsequence = "RRIRTRPPRLPRPRPRPDKMPRP"
qualitativelabel = 0.0

[[record]]
recordsequence = "RRIRVRPPRLPRPRPRPILKPRP"
qualitativelabel = 1.0

[[record]]
recordsequence = "RRIRIRPPRLPRPRPRPWFCPRP"
qualitativelabel = 0.0

[[record]]
recordsequence = "RRIRKRPPRLPRPRPRPHPDPRP"
qualitativelabel = 1.0


Request: Can RRIRLRPPRLPRPRPRPNTLPRP be said to have shrunken log2 fold change at or above -0.3?
Response: 1.0

Request: Continue with RRIRSRPPRLPRPRPRPDADPRP
Response: 1.0

---

System: Escherichia coli TOP10
Assay: shrunken log2 fold change of peptide-encoding DNA abundance (4.5 h post-induction vs induction); higher = less antimicrobial activity (less host growth inhibition)
Settings: time post-induction: 4.5 h; library: site-saturation at positions 5, 18, 19, 20
Assign yes (1) whenever shrunken log2 fold change does not fall below -0.03; assign no (0) whenever it does.

[[record]]
recordsequence = "RRIRQRPPRLPRPRPRPNTRPRP"
qualitativelabel = "no (0)"


API: the following record is the query input.
Request: Can RRIRRRPPRLPRPRPRPLACPRP be said to have shrunken log2 fold change at or above -0.03?
Response: yes (1)

---

Tested on: Escherichia coli TOP10
Experiment: shrunken log2 fold change of peptide-encoding DNA abundance (4.5 h post-induction vs induction); higher = less antimicrobial activity (less host growth inhibition)
Settings: time post-induction: 4.5 h; library: site-saturation at positions 5, 18, 19, 20
Grouping rule (shrunken log2 fold change): b0 (below -0.09), b1 (-0.09 to below 0.1), b2 (0.1 or more)

[[record]]
recordsequence = "RRIRTRPPRLPRPRPRPNCSPRP"
qualitativelabel = "b0"

[[record]]
recordsequence = "RRIRIRPPRLPRPRPRPPKVPRP"
qualitativelabel = "b1"

[[record]]
recordsequence = "RRIRHRPPRLPRPRPRPKFAPRP"
qualitativelabel = "b1"

[[record]]
recordsequence = "RRIRVRPPRLPRPRPRPFNKPRP"
qualitativelabel = "b2"

[[record]]
recordsequence = "RRIRERPPRLPRPRPRPCFDPRP"
qualitativelabel = "b0"


Request: Which shrunken log2 fold change category applies to RRIRNRPPRLPRPRPRPVDWPRP here?
Response: b2

Request: Continue with RRIRSRPPRLPRPRPRPPEEPRP
Response: b1

Request: Continue with RRIRLRPPRLPRPRPRPQTDPRP
Response: b0

Request: Continue with RRIRYRPPRLPRPRPRPAWLPRP
Response: b1

Request: Continue with RRIRLRPPRLPRPRPRPHMNPRP
Response: b0

Request: Continue with RRIRPRPPRLPRPRPRPSGPPRP
Response: b0

Request: Continue with RRIRMRPPRLPRPRPRPHGYPRP
Response: b2

Request: Continue with RRIRLRPPRLPRPRPRPTWGPRP
Response: b2

Request: Continue with RRIRWRPPRLPRPRPRPICLPRP
Response: b1

Request: Continue with RRIRCRPPRLPRPRPRPTGAPRP
Response: b2

Request: Continue with RRIRWRPPRLPRPRPRPNKWPRP
Response: b1

Request: Continue with RRIRFRPPRLPRPRPRPQPRPRP
Response: b2

Request: Continue with RRIRCRPPRLPRPRPRPICCPRP
Response: b0

Request: Continue with RRIRFRPPRLPRPRPRPNAAPRP
Response: b2

Request: Continue with RRIRPRPPRLPRPRPRPTTQPRP
Response: b1

Request: Continue with RRIRNRPPRLPRPRPRPMFMPRP
Response: b0

Request: Continue with RRIRSRPPRLPRPRPRPHAPPRP
Response: b2

Request: Continue with RRIRIRPPRLPRPRPRPKNYPRP
Response: b0

Request: Continue with RRIRHRPPRLPRPRPRPNQTPRP
Response: b1

---

Give measured shrunken log2 fold change for each item. Keep answers brief.
System: Escherichia coli TOP10;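 further: peptides expressed intracellularly from a pBAD plasmid library in pooled LB shake-flask culture, induced with 0.3% L-arabinose, DNA abundance read by NGS, three biological replicates, DESeq2 with apeglm shrinkage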
Test: shrunken log2 fold change of peptide-encoding DNA abundance (4.5 h post-induction vs induction); higher = less antimicrobial activity (less host growth inhibition)
Conditions: time post-induction: 4.5 h; library: site-saturation at positions 5, 18, 19, 20
One number for each entry.

Some solved entries appear below for comparison.
[[record]]
recordsequence = "RRIRERPPRLPRPRPRPSTRPRP"
numericresult = -0.232

[[record]]
recordsequence = "RRIRARPPRLPRPRPRPEIHPRP"
numericresult = 0.756

[[record]]
recordsequence = "RRIRHRPPRLPRPRPRPRDIPRP"
numericresult = 0.115


Provide each entry's shrunken log2 fold change from the list below.
1. RRIRRRPPRLPRPRPRPLFMPRP
2. RRIRSRPPRLPRPRPRPGVYPRP
3. RRIRCRPPRLPRPRPRPNDAPRP
4. RRIRERPPRLPRPRPRPRQNPRP
5. RRIRTRPPRLPRPRPRPIPHPRP
6. RRIRLRPPRLPRPRPRPSSCPRP
7. RRIRFRPPRLPRPRPRPMNQPRP

Response:
[0.0797, -0.0749, -0.12, 0.177, -0.307, -0.277, -0.528]
